- TARGET ENTITY: UDP-N-acetylglucosamine--peptide N-acetylglucosaminyltransferase 110 kDa subunit (Homo sapiens, UniProt O15294)
- Sequence (O15294 whole entry): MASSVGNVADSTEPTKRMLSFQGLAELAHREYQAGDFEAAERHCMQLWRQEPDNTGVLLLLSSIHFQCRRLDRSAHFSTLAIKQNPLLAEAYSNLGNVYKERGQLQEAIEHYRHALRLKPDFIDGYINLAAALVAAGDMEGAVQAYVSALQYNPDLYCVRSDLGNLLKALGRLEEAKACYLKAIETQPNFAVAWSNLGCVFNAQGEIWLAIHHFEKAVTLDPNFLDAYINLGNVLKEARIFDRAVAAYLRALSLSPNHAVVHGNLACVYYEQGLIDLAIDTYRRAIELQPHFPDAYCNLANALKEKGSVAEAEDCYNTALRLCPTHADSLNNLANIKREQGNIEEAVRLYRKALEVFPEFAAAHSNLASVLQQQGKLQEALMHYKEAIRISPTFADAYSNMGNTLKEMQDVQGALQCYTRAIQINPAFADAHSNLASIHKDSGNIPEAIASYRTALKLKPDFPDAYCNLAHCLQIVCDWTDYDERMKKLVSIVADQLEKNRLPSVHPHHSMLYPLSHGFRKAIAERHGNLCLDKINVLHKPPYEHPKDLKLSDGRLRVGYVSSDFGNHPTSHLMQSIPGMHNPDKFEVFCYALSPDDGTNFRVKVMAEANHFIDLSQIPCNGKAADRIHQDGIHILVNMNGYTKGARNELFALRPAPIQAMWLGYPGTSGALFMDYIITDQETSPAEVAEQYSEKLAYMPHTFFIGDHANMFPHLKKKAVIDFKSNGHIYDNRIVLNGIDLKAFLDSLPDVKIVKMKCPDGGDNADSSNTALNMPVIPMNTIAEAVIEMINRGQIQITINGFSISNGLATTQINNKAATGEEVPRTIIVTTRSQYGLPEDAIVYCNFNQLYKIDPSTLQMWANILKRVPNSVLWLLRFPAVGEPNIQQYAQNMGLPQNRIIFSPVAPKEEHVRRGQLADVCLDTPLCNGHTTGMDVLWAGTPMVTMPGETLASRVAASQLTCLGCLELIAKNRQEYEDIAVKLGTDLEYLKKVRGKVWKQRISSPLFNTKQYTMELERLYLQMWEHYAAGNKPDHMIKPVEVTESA
READOUT TYPE: pKi
// field semantics: pKi = negative decimal log of concentration (mol/L)

Prompt line: For the compound shown here, CC(=O)N[C@H]1C(n2cc(COP(=O)(O)OC[C@H]3O[C@@H](n4ccc(=O)[nH]c4=O)[C@H](O)[C@@H]3O)nn2)O[C@H](CO)[C@@H](O)[C@@H]1O (stereo partly specified) , give the reported pKi.
Response line: 3.63

###

- TARGET ENTITY: Cystic fibrosis transmembrane conductance regulator (Homo sapiens, UniProt P13569, F508DEL)
- Sequence (P13569 as listed by the source): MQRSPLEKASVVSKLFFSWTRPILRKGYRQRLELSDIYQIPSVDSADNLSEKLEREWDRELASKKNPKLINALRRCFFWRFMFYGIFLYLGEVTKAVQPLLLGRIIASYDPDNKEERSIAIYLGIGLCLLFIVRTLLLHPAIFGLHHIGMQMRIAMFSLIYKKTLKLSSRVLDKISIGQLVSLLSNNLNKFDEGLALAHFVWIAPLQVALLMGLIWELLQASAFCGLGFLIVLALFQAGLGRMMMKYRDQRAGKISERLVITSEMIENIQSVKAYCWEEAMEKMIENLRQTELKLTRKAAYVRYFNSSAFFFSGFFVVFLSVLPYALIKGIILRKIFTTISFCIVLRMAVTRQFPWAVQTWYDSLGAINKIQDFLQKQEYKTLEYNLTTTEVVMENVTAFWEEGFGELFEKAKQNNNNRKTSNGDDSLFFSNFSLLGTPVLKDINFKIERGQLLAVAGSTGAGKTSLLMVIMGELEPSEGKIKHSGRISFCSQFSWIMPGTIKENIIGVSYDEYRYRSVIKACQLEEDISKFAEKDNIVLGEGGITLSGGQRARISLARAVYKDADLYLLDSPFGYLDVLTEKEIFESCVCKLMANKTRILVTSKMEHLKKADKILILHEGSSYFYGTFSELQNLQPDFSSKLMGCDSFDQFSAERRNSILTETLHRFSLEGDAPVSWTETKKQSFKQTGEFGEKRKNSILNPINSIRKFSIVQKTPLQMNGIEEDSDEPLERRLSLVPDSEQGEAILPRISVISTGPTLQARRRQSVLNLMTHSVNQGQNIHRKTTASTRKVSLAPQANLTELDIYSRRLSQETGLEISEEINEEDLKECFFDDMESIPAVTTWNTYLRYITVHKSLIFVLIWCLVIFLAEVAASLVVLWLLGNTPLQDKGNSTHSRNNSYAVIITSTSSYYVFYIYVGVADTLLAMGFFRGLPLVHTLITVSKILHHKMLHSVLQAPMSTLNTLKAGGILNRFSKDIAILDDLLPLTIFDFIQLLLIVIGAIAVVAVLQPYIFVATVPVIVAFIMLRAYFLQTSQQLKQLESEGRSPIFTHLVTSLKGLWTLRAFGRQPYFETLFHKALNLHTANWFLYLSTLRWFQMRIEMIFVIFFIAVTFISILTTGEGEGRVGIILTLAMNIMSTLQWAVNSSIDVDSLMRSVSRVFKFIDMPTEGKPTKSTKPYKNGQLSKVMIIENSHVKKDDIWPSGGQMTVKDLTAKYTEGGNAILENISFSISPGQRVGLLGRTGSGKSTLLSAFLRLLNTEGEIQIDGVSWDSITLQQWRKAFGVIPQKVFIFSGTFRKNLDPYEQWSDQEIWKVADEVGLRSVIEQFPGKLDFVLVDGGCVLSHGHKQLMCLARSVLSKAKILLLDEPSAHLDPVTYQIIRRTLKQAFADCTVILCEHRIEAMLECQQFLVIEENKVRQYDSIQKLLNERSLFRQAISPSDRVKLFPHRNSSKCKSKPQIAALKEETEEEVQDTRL
- EXPERIMENT NOTES: Activation of CFTR F508del mutant (unknown origin)
READOUT TYPE: IC50

Prompt line: I would be grateful if you could share the reported IC50 for `Cc1ccc(-n2cc(C3(c4ccc5c(c4)OC(F)(F)O5)CC3)nn2)cc1-c1cccc(C(=O)O)c1` .
Response line: 0.66 µM

Cited source for all entries: ChEMBL document CHEMBL6074626
